- Measurement description: Stress test: stability in premix mixture, stored at 40° C. and 70% humidity for 4 weeks, retention of vitamin content
- Assay type: physicochemical
- Condition set: Table 4b; mixed tocopherol 4% by wt. (in active ingredient phase) + propyl gallate 4% by wt. (in protective colloid phase)
Items are presented alongside their recorded Retention Active ingredient content after 4-week test.
Reply with just the number (in %).

INPUT: Output measured Retention Active ingredient content after 4-week test for this item: CCOC(=O)/C(C)=C/C=C/C(C)=C/C=C/C=C(C)/C=C/C=C(C)/C=C/C1=C(C)CCCC1(C)C [C30 ester]
OUTPUT: 57.5

INPUT: Output measured Retention Active ingredient content after 4-week test for this item: CC1=C(/C=C/C(C)=C/C=C/C(C)=C/C=C/C=C(C)/C=C/C=C(C)/C=C/C2=C(C)C(=O)CCC2(C)C)C(C)(C)CCC1=O [Canthaxanthin]
OUTPUT: 78.1

INPUT: Output measured Retention Active ingredient content after 4-week test for this item: CC(=O)/C=C/C(C)=C/C=C/C(C)=C/C=C/C=C(C)/C=C/C=C(C)/C=C/C1=C(C)CCCC1(C)C [Citranaxanthin]
OUTPUT: 67.5
